Test system: MS2 coat protein
Test: apparent KD of MS2 coat protein; higher = weaker reporter binding
Settings: Eterna round: R107; input ligand: theophylline 2 mM

| Chain | apparent KD of MS2 coat protein / nM |
| --- | --- |
| CUCAUCCACGCGGCCGCCACUAUAUUGUGGUGUGAAUGUGACGUAUUACAUGAGGAUCACCCAUGUAGGACCGGGCGUGGAUGAG [#07 Exclusion Tryptophan B] | 93.5 |
| GCGAUGGAGCGAAGGAGCGGCUAAAUGUAACACAUGAGGAUCACCCAUGUUCCAAGAUGUGGCCAGGUAGGUCGCGCUCCAUCGC [SSAB NP+V+V2 #15] | 185 |
| GAUUACAUGAGGAUCACCCAUGUAACUGAAGGAGCGGUAAUAAAGCCAGGUAGGUCGCGGAACAACAUGUGGAUCACCCAUGUAA [#13 Exclusion - Arginine A] | 43.7 |
